- Measured target: IDO1 (Homo sapiens, UniProt P14902)
- Sequence (P14902 whole entry): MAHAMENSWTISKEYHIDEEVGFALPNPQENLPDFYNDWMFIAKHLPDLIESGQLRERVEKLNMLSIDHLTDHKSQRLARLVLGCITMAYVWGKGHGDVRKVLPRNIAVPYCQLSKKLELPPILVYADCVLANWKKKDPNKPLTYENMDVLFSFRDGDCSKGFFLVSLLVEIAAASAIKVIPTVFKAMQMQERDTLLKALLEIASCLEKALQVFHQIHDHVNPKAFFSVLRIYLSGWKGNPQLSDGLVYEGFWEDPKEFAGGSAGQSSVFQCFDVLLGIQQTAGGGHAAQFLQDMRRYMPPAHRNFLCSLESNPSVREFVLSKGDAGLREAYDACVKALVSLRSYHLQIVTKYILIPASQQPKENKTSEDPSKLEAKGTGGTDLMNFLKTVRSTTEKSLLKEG
- Experimental details: IDO1 enzymatic assay
- Assay type: biochemical
- Design: His tag (N); made in house; host or cells: E. coli
- Test parameters: read-out: Enzyme IC50 IDO1
Measured endpoint: IC50 (nM)

Solved entries:
Compound | Measured target | Test value
O[C@H](c1c(C2CC2)ccn2cncc12)[C@H]1CC[C@H](c2ccc(F)cc2)CC1 (single isomer, unassigned) [Example C107a] | IDO1 (Homo sapiens, UniProt P14902) | 31
O=C(O)c1ccc(C2CCC(C(O)c3c(C4CC4)ccc4cncn34)CC2)cc1 (centres unmarked) [Example D111] | IDO1 (Homo sapiens, UniProt P14902) | 25
OC(c1c(C2CC2)ccn2cncc12)C1CCN(c2ccc(F)c(F)c2)CC1 (centres unmarked) [Example C141] | IDO1 (Homo sapiens, UniProt P14902) | 76
O[C@@H](c1c(C2CC2)ccn2cncc12)[C@H]1CC[C@H](c2ccc(C(F)(F)F)nc2)CC1 (single isomer, unassigned) [Example C120b] | IDO1 (Homo sapiens, UniProt P14902) | 4800
OC(c1c(C2CC2)ccc2cncn12)C1CCC(c2ccc(F)cc2Cl)CC1 (centres unmarked) [Example D130] | IDO1 (Homo sapiens, UniProt P14902) | 50

[A] O[C@H](c1c(C2CC2)ccc2cncn12)[C@H]1CC[C@H](c2ccccc2)CC1 (single isomer, unassigned) [Example D101a]
[B] O[C@H](c1c(C2CC2)ccc2cncn12)[C@H]1CC[C@H](c2ccc3sccc3c2)CC1 (single isomer, unassigned) [Example D133a]
[C] O[C@H](c1c(C2CC2)ccn2cncc12)[C@H]1CC[C@H](c2cccc(F)c2)CC1 (single isomer, unassigned) [Example C109a]
[D] OC(c1c(C2CC2)ccc2cncn12)[C@H]1CC[C@@H](c2ccc(Cl)cc2)CC1 (single isomer, unassigned) [Example D103a]
[E] O[C@H](c1c(C2CC2)ccn2cncc12)[C@H]1CC[C@H](c2ccc(F)c(Cl)c2)CC1 (single isomer, unassigned) [Example C132a]
Place the items in sequence of falling IC50. Provide the labels, sequenced as the question asks.
D, E, C, B, A
(D: 1900 nM, E: 64 nM, C: 43 nM, B: 21 nM, A: 14 nM)

====

- Measured target: UniProtKB P14902
- Experimental details: Hela cell-based IDO1 assay
- Test parameters: Hela cells
Measured endpoint: EC50 (nM)

// below: answered compounds
Compound | Measured endpoint | Test value
NC(=O)c1ccc([C@H]2CC[C@H]([C@H](O)c3c(C4CC4)ccn4cncc34)CC2)cc1 | EC50 | 236
CC(=O)c1ccc(C2CCC(C(O)c3c(C4CC4)ccc4cncn34)CC2)cc1 (centres unmarked) | EC50 | 836
O[C@@H](c1c(C2CC2)ccc2cncn12)[C@H]1CC[C@H](c2ccc(-c3ccccc3)cc2)CC1 (single isomer, unassigned) [Example D119b] | EC50 | 3530
O[C@@H](c1c(C2CC2)ccc2cncn12)C1CCN(c2ccc(Cl)c3ncccc23)CC1 (single isomer, unassigned) [Example D178b] | EC50 | 1470
O[C@H](c1c(C2CC2)ccc2cncn12)[C@H]1CC[C@@H](c2ccc(OC3CCOCC3)cc2)CC1 [Example D114d] | EC50 | 5110
OC(c1c(C2CC2)ccc2cncn12)C1CCC(c2ccc(-c3ccccc3)cc2)CC1 (centres unmarked) | EC50 | 668
CNC(=O)c1ccc([C@H]2CC[C@H]([C@@H](O)c3c(C4CC4)ccc4cncn34)CC2)cc1 (single isomer, unassigned) [Example D124b] | EC50 | 5230
O[C@H](c1c(C2CC2)ccn2cncc12)[C@H]1CC[C@H](c2ccccc2C(F)(F)F)CC1 (single isomer, unassigned) [Example C116a] | EC50 | 500

[a] O[C@@H](c1c(C2CC2)ccc2cncn12)C1CCC(c2csc3ccccc23)CC1 (single isomer, unassigned) [Example D155b]
[b] OC(c1c(C2CC2)ccc2cncn12)C1CCC(c2ccc3ncccc3c2)CC1 (centres unmarked)
[c] O[C@H](c1c(C2CC2)ccc2cncn12)[C@H]1CC[C@H](c2ccccc2Cl)CC1 (single isomer, unassigned) [Example D117a]
Arrange the 3 compounds from largest to smallest EC50. A ranking is expressed here by listing the labels in the requested order.
a, c, b
(a: 5630 nM, c: 492 nM, b: 75 nM)

[a] Oc1ccccc1[C@H]1CC[C@H]([C@H](O)c2c(C3CC3)ccc3cncn23)CC1 (single isomer, unassigned) [Example D112a]
[b] O=C(Nc1ccc(C2CCC(C(O)c3c(C4CC4)ccc4cncn34)CC2)cc1)OCc1ccccc1 (centres unmarked)
Could you point out whether the larger EC50 belongs to a or to b ? Mark your answer with the label of the selected entry.
b

[A] O[C@@H](c1c(C2CC2)ccc2cncn12)[C@H]1CC[C@H](c2ccc(F)cc2F)CC1 (single isomer, unassigned) [Example D127b]
[B] O[C@H](c1c(C2CC2)ccc2cncn12)C1CCN(c2cccc(F)c2)CC1 [Example D172a]
Please indicate which item has the smaller measured EC50: A versus B Lab log: write the label of the selected item as the result.
B
(B: 23 nM, A: 4620 nM)

====

- Measured target: IDO1 (Homo sapiens, UniProt P14902)
- Experimental details: Hela cell-based IDO1 assay
- Test parameters: Hela cells
pEC50: −log10 of the molar value.
Measured endpoint: pEC50

Solved cases (2 shown):
Molecule | Measured target | pEC50
O[C@H](c1cc(Cl)cc2cncn12)[C@H]1CC[C@H](c2ccc3ccccc3c2)CC1 (single isomer, unassigned) [Example E104a] | IDO1 (Homo sapiens, UniProt P14902) | 5.43
O=C(O)c1ccc([C@H]2CC[C@H]([C@H](O)c3c(C4CC4)ccc4cncn34)CC2)cc1 (single isomer, unassigned) [Example D111a] | IDO1 (Homo sapiens, UniProt P14902) | 6.45

[A] O=Cc1ccc(C2CCC(C(O)c3c(C4CC4)ccc4cncn34)CC2)cc1 (centres unmarked) [Example D123]
[B] CC(=O)c1ccc([C@H]2CC[C@H]([C@H](O)c3c(C4CC4)ccn4cncc34)CC2)cc1 [Example C125]
Lower value for measured pEC50? Options: A , B Returns: label corresponding to the selected item.
B

====

- Measured target: IDO1 (Homo sapiens)
- Experimental details: IDO1 enzymatic assay
- Format: biochemical
- Design: His tag (N); made in house; host or cells: E. coli
- Test parameters: read-out: Enzyme IC50 IDO1
Measured endpoint: IC50 (nM)

Compound | Measured endpoint | Test value
OC(c1c(C2CC2)ccn2cncc12)C1CCN(c2ccc(F)cc2)CC1 (stereo not shown) [Example C137] | IC50 | 79
OC(c1c(C2CC2)ccn2cncc12)C1CCC(c2ccc(F)c(F)c2)CC1 (stereo not shown) | IC50 | 110

[a] Oc1ccccc1[C@H]1CC[C@H]([C@@H](O)c2c(C3CC3)ccc3cncn23)CC1 (single isomer, unassigned) [Example D112b]
[b] OC(c1c(C2CC2)ccn2cncc12)C1CCC(c2ccc(Cl)cc2)CC1 (racemic)
[c] Oc1ccc([C@H]2CC[C@H]([C@@H](O)c3c(C4CC4)ccc4cncn34)CC2)cc1 [Example D106b]
[d] COc1cccc(C2CCC(C(O)c3c(C(C)C)ccc4cncn34)CC2)c1 (stereo not shown)
// ranking: key=IC50, reverse=True Return the labels ranked in the requested order, please.
a, c, b, d
(a: 1700 nM, c: 1100 nM, b: 100 nM, d: 28 nM)

====

- Measured target: IDO1 (Homo sapiens)
- Experimental details: IDO1 enzymatic assay
- Assay type: biochemical
- Parameters: His tag (N); made in house; host or cells: E. coli
- Test parameters: read-out: Enzyme IC50 IDO1
Measured endpoint: IC50 (nM)

Molecule | Unit of measurement | IC50
O[C@H](c1c(C2CC2)ccn2cncc12)[C@H]1CC[C@H](c2ccc(C(F)(F)F)cc2)CC1 (single isomer, unassigned) [Example C115a] | nM | 67

[I] O=Cc1ccc(C2CCC(C(O)c3c(C4CC4)ccc4cncn34)CC2)cc1 (stereo not drawn)
[II] O[C@H](c1c(C2CC2)ccc2cncn12)C1CCN(c2cccc(Cl)c2)CC1 (single isomer, unassigned) [Example D173a]
Could you determine which record has the numerically smaller IC50? Candidates: I and II Provide the label of your selected option as the answer.
II
(II: 18 nM, I: 54 nM)

====

- Measured target: IDO1 (Homo sapiens)
- Experimental details: Hela cell-based IDO1 assay
- Test parameters: Hela cells
pEC50: −log10 of the molar value.
Measured endpoint: pEC50

Below: 6 molecules and their reported pEC50.
Molecule | Measured endpoint | Test value
CN(C)C(=O)c1ccc([C@H]2CC[C@H]([C@H](O)c3c(C4CC4)ccc4cncn34)CC2)cc1 (single isomer, unassigned) [Example D125a] | pEC50 | 6.34
COc1ccccc1[C@H]1CC[C@H]([C@H](O)c2c(C3CC3)ccn3cncc23)CC1 (single isomer, unassigned) [Example C113a] | pEC50 | 7.05
OC(c1c(C2CC2)ccc2cncn12)C1CCC(c2cc(F)cc(F)c2)CC1 (stereo not shown) [Example D144] | pEC50 | 7.02
Oc1ccc(C2CCC(C(O)c3c(C4CC4)ccn4cncc34)CC2)cc1 (racemic) [Example C104] | pEC50 | 7.09
COc1ccc([C@H]2CC[C@H](C(O)c3c(C4CC4)ccc4cncn34)CC2)c(F)c1 (single isomer, unassigned) [Example D146a] | pEC50 | 6.91
Oc1ccc([C@H]2CC[C@H]([C@@H](O)c3c(C4CC4)ccc4cncn34)CC2)cc1 [Example D106b] | pEC50 | 5.59

[A] COc1ccc(C2CCC(C(O)c3c(C4CC4)ccc4cncn34)CC2)cc1 (stereo not shown) [Example D102]
[B] O[C@@H](c1c(C2CC2)ccc2cncn12)[C@H]1CC[C@H](c2ccnc3ccc(F)cc32)CC1 (single isomer, unassigned) [Example D150b]
Returns: the label, A or B , whose recorded pEC50 is the lower number. Lab note: record the label of whichever item you select.
B

[I] COc1ccccc1C1CCC(C(O)c2c(C3CC3)ccc3cncn23)CC1 (stereo not shown) [Example D113]
[II] O[C@H](c1c(C2CC2)ccc2cncn12)[C@H]1CC[C@H](c2ccc(F)c(F)c2)CC1 (single isomer, unassigned) [Example D126a]
Parameter check: reported pEC50 is higher for which label, I or II ? Identify your pick by its label.
II

[I] OC(c1cc(Cl)cc2cncn12)C1CCC(c2ccc(Cl)cc2)CC1 (stereo not shown) [Example E101]
[II] N#Cc1ccc(C2CCC(C(O)c3c(C4CC4)ccn4cncc34)CC2)cc1 (racemic) [Example C106]
[III] O[C@H](c1c(C2CC2)ccn2cncc12)[C@H]1CC[C@H](c2ccc(OC(F)(F)F)cc2)CC1 (single isomer, unassigned) [Example C105a]
[IV] OC(c1c(C2CC2)ccc2cncn12)[C@H]1CC[C@H](c2ccc(Cl)cc2)CC1 (single isomer, unassigned) [Example D103c]
Hey, quick one: sort these by pEC50, largest value first please. Output the labels ranked as instructed.
IV, II, III, I

[I] O[C@H](c1c(C2CC2)ccc2cncn12)[C@H]1CC[C@H](c2ccc(-c3ccccc3)cc2)CC1 (single isomer, unassigned) [Example D119a]
[II] O[C@@H](c1c(C2CC2)ccc2cncn12)C1CCN(c2ccc(F)cc2)CC1 (single isomer, unassigned) [Example D171b]
// max by pEC50 over [ I , II ] Please indicate the selected item by its label.
I
(I: 6.46, II: 5.24)
